Target: Taq DNA polymerase E491G/R536C/K540C/H784C (UniProt P19821 P19821:1-832, E491G,R536C,K540C,H784C)
Sequence (P19821 whole entry E491G/R536C/K540C/H784C, one chain of several): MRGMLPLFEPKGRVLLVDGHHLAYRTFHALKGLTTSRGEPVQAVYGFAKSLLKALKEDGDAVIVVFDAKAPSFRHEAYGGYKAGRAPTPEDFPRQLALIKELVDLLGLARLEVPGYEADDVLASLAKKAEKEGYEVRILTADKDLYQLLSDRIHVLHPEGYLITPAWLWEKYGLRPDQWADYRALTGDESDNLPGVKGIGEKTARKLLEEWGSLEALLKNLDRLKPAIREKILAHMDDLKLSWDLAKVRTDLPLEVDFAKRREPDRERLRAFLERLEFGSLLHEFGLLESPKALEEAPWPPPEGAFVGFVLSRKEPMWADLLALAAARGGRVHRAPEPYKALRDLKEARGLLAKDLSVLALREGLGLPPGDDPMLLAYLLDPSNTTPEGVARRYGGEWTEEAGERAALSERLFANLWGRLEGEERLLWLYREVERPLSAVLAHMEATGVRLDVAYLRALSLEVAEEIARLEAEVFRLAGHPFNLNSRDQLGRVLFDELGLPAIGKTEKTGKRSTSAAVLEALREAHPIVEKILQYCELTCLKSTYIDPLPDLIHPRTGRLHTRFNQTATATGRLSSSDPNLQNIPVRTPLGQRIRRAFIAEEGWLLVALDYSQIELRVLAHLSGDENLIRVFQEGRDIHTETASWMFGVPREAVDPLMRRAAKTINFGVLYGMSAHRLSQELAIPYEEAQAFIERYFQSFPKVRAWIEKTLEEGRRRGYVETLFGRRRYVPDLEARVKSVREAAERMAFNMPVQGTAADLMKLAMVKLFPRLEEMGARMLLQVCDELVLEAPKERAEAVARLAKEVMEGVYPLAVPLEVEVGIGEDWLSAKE
Test: EMSA; 1x TAE with 2 mM EDTA, pH 8.3, 10% glycerol
Conditions: tags: Fermentas; label: 5'-33P on 24 nt strand; 24 nt primer annealed to 44 nt template, 20 nt 5' template overhang
test_readout: Kd (nM)
Numbers only here, please. The scale is nM.

Name the recorded Kd for 24/44 nt template-primer duplex (dsDNA) DNA 1: TTTTAGCCGCTAGAGTCGACCTGC DNA 2: GGAGACAAGCTTGTATGCCTGCAGGTCGACTCTAGCGGCTAAAA .
200
